target.or.system: Sodium-dependent serotonin transporter (Homo sapiens)
Format: cell-based, HEK293
assay.setup: hek293
Description: Inhibition of wild type human SERT expressed in HEK293 cells assessed as inhibition of [3H]-5HT reuptake preincubated for 5 mins followed by [3H]5HT addition and measured after 1 min by liquid scintillation counting analysis
readout.name: IC50

>>> recorded_value("[O-][S+](Cc1csc(C2CC2)n1)C(c1ccc(Cl)cc1)c1ccc(Cl)cc1 (stereo not given)")
"Not Active"
>>> recorded_value("[O-][S+](Cc1cnc(Cl)s1)C(c1ccccc1)c1ccccc1 (stereo not given)")
"Not Active"
>>> recorded_value("[O-][S+](Cc1csc(Cl)n1)C(c1ccccc1)c1ccccc1 (racemic)")
"Not Active"
>>> recorded_value("Cc1nc(CC[S+]([O-])C(c2ccccc2)c2ccccc2)cs1 (stereo not given)")
"Not Active"
>>> recorded_value("[O-][S@@+](Cc1cncs1)[C@@H](c1ccccc1)c1ccc(Cl)cc1")
"Not Active"
>>> recorded_value("[O-][S+](Cc1nccs1)C(c1ccc(Cl)cc1)c1ccc(Cl)cc1 (stereo not given)")
"Not Active"
>>> recorded_value("Cc1ccc(C(c2ccc(C)cc2)[S+]([O-])Cc2cscn2)cc1 (stereo not given)")
"Not Active"
>>> recorded_value("[O-][S@+](Cc1cscn1)[C@@H](c1ccccc1)c1ccc(Br)cc1")
"Not Active"
>>> recorded_value("Cc1ccc([C@H](c2ccccc2)[S@+]([O-])Cc2cncs2)cc1")
"Not Active"
>>> recorded_value("[O-][S@+](Cc1cncs1)[C@@H](c1ccccc1)c1ccc(C(F)(F)F)cc1")
"Not Active"

* * *

Below, each of the molecules is paired with its reported log10(IC50) value.
target.or.system: UniProt:Q01959
Sequence (Q01959 whole entry): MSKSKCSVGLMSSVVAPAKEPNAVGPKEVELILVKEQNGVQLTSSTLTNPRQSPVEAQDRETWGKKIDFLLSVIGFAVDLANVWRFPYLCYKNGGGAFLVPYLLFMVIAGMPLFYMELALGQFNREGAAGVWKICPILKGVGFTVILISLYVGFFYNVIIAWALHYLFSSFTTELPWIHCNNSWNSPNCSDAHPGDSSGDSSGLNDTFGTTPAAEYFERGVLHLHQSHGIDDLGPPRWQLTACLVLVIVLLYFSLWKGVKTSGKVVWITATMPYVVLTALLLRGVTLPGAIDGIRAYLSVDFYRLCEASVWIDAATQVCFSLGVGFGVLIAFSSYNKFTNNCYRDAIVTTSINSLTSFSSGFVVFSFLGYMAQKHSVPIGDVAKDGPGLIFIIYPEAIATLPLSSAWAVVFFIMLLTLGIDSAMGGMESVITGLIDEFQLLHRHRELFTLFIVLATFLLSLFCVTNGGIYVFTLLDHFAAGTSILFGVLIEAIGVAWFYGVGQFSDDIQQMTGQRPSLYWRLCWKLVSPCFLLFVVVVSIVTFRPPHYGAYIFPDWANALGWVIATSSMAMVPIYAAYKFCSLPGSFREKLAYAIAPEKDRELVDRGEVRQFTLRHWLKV
test: Inhibition of wild type human dopamine transporter expressed in HEK293 cells assessed as inhibition of [3H]dopamine reuptake preincubated for 5 mins followed by [3H]dopamine addition and measured after 1 min by liquid scintillation analysis
Assay type: cell-based
assay.setup: read-out: IC50
readout.name: log10(IC50) (log10 of the value in µM)

>>> recorded_value("[O-][S@+](Cc1cncs1)[C@@H](c1ccccc1)c1ccc(Cl)cc1")
1.52
>>> recorded_value("[O-][S@@+](Cc1cncs1)C(c1ccc(F)cc1)c1ccc(F)cc1")
0.72
>>> recorded_value("COc1ccc(C(c2ccc(OC)cc2)[S+]([O-])Cc2cncs2)cc1 (configuration not stated)")
1.85
>>> recorded_value("[O-][S+](Cc1cncs1)C(c1ccccc1)c1ccccc1 (configuration not stated)")
0.66
>>> recorded_value("[O-][S@@+](Cc1cncs1)[C@H](c1ccccc1)c1ccc(Br)cc1")
0.62
>>> recorded_value("[O-][S@@+](Cc1cncs1)[C@@H](c1ccccc1)c1ccc(Cl)cc1")
0.36
>>> recorded_value("CC(C)(C)c1ncc(C[S+]([O-])C(c2ccccc2)c2ccccc2)s1 (configuration not stated)")
1.78
>>> recorded_value("CCCc1nc(C[S+]([O-])C(c2ccccc2)c2ccccc2)cs1 (configuration not stated)")
1.45
>>> recorded_value("[O-][S@+](Cc1cncs1)[C@@H](c1ccccc1)c1ccc(F)cc1")
1.44
>>> recorded_value("Cc1ccc(C(c2ccc(C)cc2)[S+]([O-])Cc2nccs2)cc1 (configuration not stated)")
1.47
>>> recorded_value("CCc1nc(C[S+]([O-])C(c2ccccc2)c2ccccc2)cs1 (configuration not stated)")
1.16
>>> recorded_value("Cc1ccc([C@@H](c2ccccc2)[S@+]([O-])Cc2cncs2)cc1")
1.29
>>> recorded_value("COc1ccc([C@H](c2ccccc2)[S@+]([O-])Cc2cncs2)cc1")
1.81
>>> recorded_value("[O-][S+](Cc1cncs1)C(c1ccc(Cl)cc1)c1ccc(Cl)cc1 (racemic)")
0.62
>>> recorded_value("[O-][S@@+](Cc1cncs1)[C@@H](c1ccccc1)c1ccc(F)cc1")
0.30
>>> recorded_value("[O-][S@@+](Cc1cncs1)C(c1ccc(Cl)cc1)c1ccc(Cl)cc1")
0.61
>>> recorded_value("Cc1ncc(C[S+]([O-])C(c2ccccc2)c2ccccc2)s1 (configuration not stated)")
1.83
>>> recorded_value("[O-][S@+](Cc1cncs1)[C@H](c1ccccc1)c1ccc(F)cc1")
0.92
>>> recorded_value("Cc1nc(C[S+]([O-])C(c2ccccc2)c2ccccc2)cs1 (configuration not stated)")
0.51
>>> recorded_value("Cc1nc(C[S+]([O-])C(c2ccccc2)c2ccccc2)c(C)s1 (configuration not stated)")
1.68
>>> recorded_value("[O-][S@+](Cc1cncs1)C(c1ccc(F)cc1)c1ccc(F)cc1")
1.35
>>> recorded_value("[O-][S+](Cc1cnc(Cl)s1)C(c1ccccc1)c1ccccc1 (configuration not stated)")
1.39

* * *

Below, each of the compounds is paired with its reported half-life value.
test: Half life in Sprague-Dawley rat at 10 mg/kg, ip compound dissolved in DMSO/Tween 80/Saline by HPLC-MS analysis
Type: ADME, organism-based
assay.setup: in vivo
readout.name: half-life (min)

>>> recorded_value("NC(=O)C[S@@+]([O-])C(c1ccccc1)c1ccccc1 [ARMODAFINIL]")
24
>>> recorded_value("[O-][S+](Cc1cncs1)C(c1ccccc1)c1ccccc1 (configuration not stated)")
54

* * *

test: Neurotoxicity in rat cortical neuron assessed as inhibition of neurite outgrowth by measuring mean neurite average length incubated for 72 hrs by Hoechst 33342 staining based ArrayScan analysis
Assay type: toxicity, cell-based, Cortical neurone
assay.setup: rat cortical neurons
readout.name: IC50 at 72 h (µM)

>>> recorded_value("COC(=O)Nc1nc2ccc(C(=O)c3cccs3)cc2[nH]1 [NOCODAZOLE]")
0.097
>>> recorded_value("CN(C)CCCN1c2ccccc2Sc2ccc(Cl)cc21 [CHLORPROMAZINE]")
9.02

* * *

test: Half life in Sprague-Dawley rat at 7.5 mg/kg, ip compound dissolved in 40% Kolliphor-EL in water by LC-MS/MS analysis
Type: ADME, organism-based
assay.setup: in vivo
readout.name: half-life (min)

>>> recorded_value("[O-][S@@+](Cc1cscn1)[C@@H](c1ccccc1)c1ccc(Br)cc1")
96

* * *

Below, each of the compounds is paired with its reported IC50 value.
target.or.system: Sodium-dependent noradrenaline transporter (Homo sapiens, UniProt P23975)
Sequence (P23975 whole entry): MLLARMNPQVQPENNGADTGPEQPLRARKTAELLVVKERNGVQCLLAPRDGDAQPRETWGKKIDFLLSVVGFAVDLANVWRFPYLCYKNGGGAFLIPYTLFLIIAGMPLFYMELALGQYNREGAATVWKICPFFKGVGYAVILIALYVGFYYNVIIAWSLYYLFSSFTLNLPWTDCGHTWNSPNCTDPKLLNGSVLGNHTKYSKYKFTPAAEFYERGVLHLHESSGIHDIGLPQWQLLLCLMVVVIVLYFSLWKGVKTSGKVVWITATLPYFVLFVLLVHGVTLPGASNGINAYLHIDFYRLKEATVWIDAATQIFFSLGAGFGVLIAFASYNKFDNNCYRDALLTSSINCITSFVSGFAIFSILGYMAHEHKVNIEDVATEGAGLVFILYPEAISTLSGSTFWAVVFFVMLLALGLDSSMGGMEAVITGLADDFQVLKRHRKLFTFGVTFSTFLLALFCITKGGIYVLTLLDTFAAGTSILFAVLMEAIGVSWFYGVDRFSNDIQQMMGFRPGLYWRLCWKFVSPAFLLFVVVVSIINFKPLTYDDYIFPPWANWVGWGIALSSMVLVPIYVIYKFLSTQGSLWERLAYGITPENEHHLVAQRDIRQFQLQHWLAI
test: Inhibition of wild type human NET expressed in HEK293 cells assessed as inhibition of [3H]-MPP+ reuptake preincubated for 5 mins followed by [3H]MPP+ addition and measured after 3 mins by liquid scintillation counting analysis
Type: cell-based
assay.setup: read-out: IC50
readout.name: IC50 (µM)

>>> recorded_value("[O-][S+](Cc1cnc(Cl)s1)C(c1ccccc1)c1ccccc1 (stereo unspecified)")
108
>>> recorded_value("Cc1nc(C[S+]([O-])C(c2ccccc2)c2ccccc2)sc1C (stereo unspecified)")
107
>>> recorded_value("CCCCc1nc(C[S+]([O-])C(c2ccccc2)c2ccccc2)cs1 (stereo unspecified)")
164
>>> recorded_value("COc1ccc([C@H](c2ccccc2)[S@@+]([O-])Cc2cncs2)cc1")
196
>>> recorded_value("[O-][S@@+](Cc1cncs1)[C@@H](c1ccccc1)c1ccc(Br)cc1")
566
>>> recorded_value("Cc1ccc([C@H](c2ccccc2)[S@@+]([O-])Cc2cncs2)cc1")
164
>>> recorded_value("[O-][S+](Cc1cncs1)C(c1ccc(Cl)cc1)c1ccc(Cl)cc1 (racemic)")
45.5
>>> recorded_value("[O-][S@+](Cc1cncs1)[C@H](c1ccccc1)c1ccc(Br)cc1")
22.7
>>> recorded_value("[O-][S@@+](Cc1cncs1)[C@H](c1ccccc1)c1ccc(Cl)cc1")
38.6
>>> recorded_value("[O-][S@@+](Cc1cncs1)C(c1ccc(F)cc1)c1ccc(F)cc1")
85
>>> recorded_value("[O-][S+](Cc1cscn1)C(c1ccc(Cl)cc1)c1ccc(Cl)cc1 (stereo unspecified)")
107

* * *

test: Plasma concentration in Sprague-Dawley rat at 7.5 mg/kg, ip compound dissolved in 40% Kolliphor-EL in water measured after 1 hr by LC-MS/MS analysis
Type: ADME, organism-based
readout.name: concentration at 1 h

>>> recorded_value("[O-][S@@+](Cc1cscn1)[C@@H](c1ccccc1)c1ccc(Br)cc1")
"2200 nM"

* * *

target.or.system: Sodium-dependent serotonin transporter (Homo sapiens, UniProt P31645)
Sequence (P31645 whole entry): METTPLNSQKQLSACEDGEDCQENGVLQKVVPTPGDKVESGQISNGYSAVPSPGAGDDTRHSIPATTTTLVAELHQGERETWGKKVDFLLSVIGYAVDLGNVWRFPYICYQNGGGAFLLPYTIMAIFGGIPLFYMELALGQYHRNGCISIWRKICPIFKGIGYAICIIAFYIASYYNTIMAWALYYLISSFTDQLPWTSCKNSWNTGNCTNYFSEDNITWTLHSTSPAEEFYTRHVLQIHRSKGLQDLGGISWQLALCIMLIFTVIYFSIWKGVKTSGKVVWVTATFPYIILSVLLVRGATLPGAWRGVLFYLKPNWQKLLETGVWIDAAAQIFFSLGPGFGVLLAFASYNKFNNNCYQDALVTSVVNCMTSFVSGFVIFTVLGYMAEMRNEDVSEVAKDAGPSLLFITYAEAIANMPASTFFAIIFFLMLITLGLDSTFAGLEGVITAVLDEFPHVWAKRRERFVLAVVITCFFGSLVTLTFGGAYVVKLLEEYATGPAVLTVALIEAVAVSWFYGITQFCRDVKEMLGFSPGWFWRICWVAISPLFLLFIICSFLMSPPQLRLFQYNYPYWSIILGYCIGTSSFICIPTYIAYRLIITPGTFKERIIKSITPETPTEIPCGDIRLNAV
Type: cell-based, HEK293
assay.setup: read-out: IC50
Could you mark each record y if its IC50 falls strictly under 100 µM, and n if it equals or exceeds it?

>>> classification("[O-][S+](Cc1csc(C2CC2)n1)C(c1ccccc1)c1ccccc1 (stereo unspecified)")
"n"
>>> classification("[O-][S@+](Cc1cncs1)[C@H](c1ccccc1)c1ccc(Br)cc1")
"y"
>>> classification("[O-][S+](Cc1cncs1)C(c1ccc(Cl)cc1)c1ccc(Cl)cc1 (racemic)")
"n"
>>> classification("COc1ccc([C@@H](c2ccccc2)[S@+]([O-])Cc2cncs2)cc1")
"y"
>>> classification("[O-][S@+](Cc1cscn1)[C@H](c1ccccc1)c1ccc(Br)cc1")
"y"
>>> classification("Cc1nc(C[S+]([O-])C(c2ccccc2)c2ccccc2)sc1C (stereo unspecified)")
"n"
>>> classification("Cc1ccc(C(c2ccc(C)cc2)[S+]([O-])Cc2cncs2)cc1 (stereo in doubt; 34a)")
"n"
>>> classification("[O-][S@+](Cc1cncs1)[C@H](c1ccccc1)c1ccc(F)cc1")
"n"
>>> classification("[O-][S@+](Cc1cncs1)[C@H](c1ccccc1)c1ccc(Cl)cc1")
"n"
>>> classification("Cc1ccc([C@@H](c2ccccc2)[S@+]([O-])Cc2cncs2)cc1")
"n"
>>> classification("COc1ccc([C@@H](c2ccccc2)[S@@+]([O-])Cc2cncs2)cc1")
"n"
